Test system: SK-OV-3
Assay: NCI tumour cell line growth inhibition, 48 h
Activity calls are given as the source filed them. No stated cut-off is given here; in the data, active = GI50 up to about 1.1 µM and inactive = higher.
Form entry, call: pick from active, inactive

Dear all, I need the recorded test outcome for O=C(Oc1ccccc1)N1c2ccccc2[C@@]23O[C@]24CCC[C@H]3C#C/C=C\C#C[C@H]14 , thank you. active

Dear all, I need the recorded test outcome for O=C1Nc2ccccc2/C1=N/NC(=S)Nc1ccc([N+](=O)[O-])cc1 , thank you. inactive

Dear all, I need the recorded test outcome for NC(=O)/C=c1/c2ccccc2n2nc3ccccc3c12 , thank you. inactive

Dear all, I need the recorded test outcome for CCOP(=O)(CCC(O)CNc1nc(N)nc(Cl)c1/N=N/c1ccc(Cl)cc1)OCC (stereo not given) , thank you. inactive

Dear all, I need the recorded test outcome for c1cncc(C2(c3cc4ccccc4[nH]3)COCO2)c1 (stereo not given) , thank you. inactive

Dear all, I need the recorded test outcome for O=C1Nc2ccc(Cl)c(I)c2C1=O , thank you. inactive

Dear all, I need the recorded test outcome for O=C1N(c2ccccc2)C2(O)C(=O)c3ccccc3C2(O)N1c1ccccc1 (stereo not given) , thank you. inactive

Dear all, I need the recorded test outcome for O=[N+]([O-])c1ccc2c(c1)c(S(=O)(=O)O)cc1nonc12 , thank you. inactive

Dear all, I need the recorded test outcome for Clc1cc2nn(C3CCCCO3)nc2cc1Cl (stereo not given) , thank you. inactive

Dear all, I need the recorded test outcome for COc1cc(/C=C2\NC(=O)C3Cc4c(OC)c(C)c(OC)c(OC)c4C2N3C)c(OC)c(C)c1OC (stereo not given) , thank you. inactive

====

Please provide measured GI50 for the entries that follow.
Test system: TK-10
Assay: NCI tumour cell line growth inhibition, 48 h
Activity calls are given as the source filed them. Rule as the data show it: active = GI50 up to about 1.1 µM and inactive = higher.

Tell me its GI50 given NCCC(=O)N[C@@H](Cc1cc(O)c(O)c(SCC(NC(=O)CC[C@H](N)C(=O)O)C(=O)NCC(=O)O)c1)C(=O)O (stereo not given in full) as the entry. > 50 µM (inactive)

Tell me its GI50 given S=C1N=C(Cl)/C(=C\c2ccco2)N1 as the entry. > 100 µM (inactive)

Tell me its GI50 given OC[C@@H](O)[C@H]1NC[C@@H](O)[C@H]1O as the entry. > 100 µM (inactive)

Tell me its GI50 given CCCS(=O)(=O)Nc1ccc(Nc2c3ccccc3nc3ccccc23)c(OC)c1 as the entry. 3.78 µM (inactive)

Tell me its GI50 given CCN(CC)C(=O)c1c(N2CCOCC2)cc(N(CC)CC)oc1=O as the entry. > 100 µM (inactive)

====

Tested on: Malme-3M
Experiment: NCI tumour cell line growth inhibition, 48 h
The source made the active and inactive calls. No stated cut-off is given here; in the data, active = GI50 up to about 1.1 µM and inactive = higher.
Form entry, call: pick from active, inactive

Dear all, I need the recorded test outcome for CN(C)c1nc(N)c(C#N)c(C#N)c1C#N , thank you. inactive

Dear all, I need the recorded test outcome for CC1(C)CCC(C)(C)c2cc(C(=O)Nc3ccc(C(=O)O)cc3)ccc21 , thank you. inactive

Dear all, I need the recorded test outcome for CC1=C2C(=CC(C)(C)C2O)C(=O)C(C)(O)C12CC2 (stereo unspecified) , thank you. active

Dear all, I need the recorded test outcome for C/C(=N\NC(N)=S)c1nc2cccnc2[nH]1 , thank you. inactive

Dear all, I need the recorded test outcome for N#Cc1cnn2c1n[n+]([O-])c1ccc(Cl)cc12 , thank you. inactive

Dear all, I need the recorded test outcome for CCCS(=O)(=O)Nc1ccc(Nc2c3ccccc3nc3ccccc23)c(OC)c1 , thank you. active

Source: ChEMBL document CHEMBL1201862
